Test system: RXRa homodimer (NR concentration 180 nM)
runDescription: PBM binding z-score (relative to random genomic background probes); higher = stronger binding; sequences stand for … in GC…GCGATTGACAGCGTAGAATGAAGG
quantity: PBM binding z-score
Numbers only.

GCATATAGGTAATACAAGGTGCAAGTCCGATTGT	0.27
ACTTACGGGTCAACGAGGTTATAGCTCGCGTATA	5.91
TTACCACGGTGAAGGTCGTTGATCCCTCTGTAGA	1.37
TAGCCCAGGTCATTGGGCCAGTATAGTACGCATC	3.37
AGAATGAGGTTATACTTAGATCAGGGAAGAAAGT	1.87

Below: the item to evaluate.
**Query** Under RXRa homodimer (NR concentration 180 nM): PBM binding z-score value of `CATACTAGGTCAAGAGGTCAAAGTCCGCTTCCCG` ?
**Result** 8.08

----------
Test system: VDR:RXRa (NR concentration 270 nM, RXRa partner concentration 90 nM)
runDescription: PBM binding z-score (relative to random genomic background probes); higher = stronger binding; sequences stand for … in GC…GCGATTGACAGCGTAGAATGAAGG
Provide the reported PBM binding z-score of each item.
Numbers only.

Worked set:
TCTATTAGTTGAAGGGCAACCTACGAGTCCGTTT	0.986
TCTATTAGTTGATTGGGGCAACCGAAACAGCGGA	0.952
TGTCAAAGATCAAAGGTAACGTAAGTATCCACAC	0.973
CAAACTGGGTCACAGAGGTCAAAGTCCGTGCGTA	7.58
CGGACTGGGGCATAAGGTTACCATAAGCCAGCCC	0.33
GCTTACGGGTCAAAGGTTATAGCATGAATAGAAT	5.86
CGTCCAAGGTCAGAGTGGTCAGTGAATGCCGAGT	3.87
TCGAGTAGATTAGGGGCATTCAGAATGGCGTCGA	0.295
CCTATTAGTTGACGATAAGGGCAACCGAAGCTCG	0.128
GCTGCTAGGTCAACTGATGGTCAGCTATAGCTCG	1.82

Hey, quick one: what's PBM binding z-score for each of these?
1. CGTCAAAGTTCAACTAAGGGAACGTAAAGCACGC
2. TCGAGTAAGTTACCAATGGGGCATTCAGCTTTCT

**Result**
1: 4.35; 2: 0.0279

----------
Test system: PXR:RXRa (NR concentration 270 nM, RXRa partner concentration 90 nM)
runDescription: PBM binding z-score (relative to random genomic background probes); higher = stronger binding; sequences stand for … in GC…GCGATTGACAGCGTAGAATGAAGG
Threshold check on PBM binding z-score: at or above 0.9 gives YES, strictly below gives NO.

**Query** Please check the record `CCTAGTTGGTCAGGACGTCACACACCGGATATGA` and state if its PBM binding z-score is at or above 0.9.
**Result** NO

**Query** Please check the record `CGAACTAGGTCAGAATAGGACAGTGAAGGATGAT` and state if its PBM binding z-score is at or above 0.9.
**Result** NO

**Query** Please check the record `CGTCAAAGTTCAAGGTAACGTATCAGAAAGCAGC` and state if its PBM binding z-score is at or above 0.9.
**Result** YES

**Query** Please check the record `ACTAGCGGGCCAAGTTTGGGTCACTCAAACAAAG` and state if its PBM binding z-score is at or above 0.9.
**Result** NO

**Query** Please check the record `TCGAATAGGTTAGGGGCATTCAGAATGGCGTCGA` and state if its PBM binding z-score is at or above 0.9.
**Result** NO

**Query** Please check the record `CGTCCAAGGTCAATGCTAGGTTAGTGAAAGCATT` and state if its PBM binding z-score is at or above 0.9.
**Result** YES

Hey, just so you know, these numbers are from the supplement of paper PMC6555819.
